Each record here notes measured Dmax.
Biological target: IRAK4 (Homo sapiens)
Construct: endogenous in cells; host or cells: Karpas299
Sequence (Q9NWZ3 1-460): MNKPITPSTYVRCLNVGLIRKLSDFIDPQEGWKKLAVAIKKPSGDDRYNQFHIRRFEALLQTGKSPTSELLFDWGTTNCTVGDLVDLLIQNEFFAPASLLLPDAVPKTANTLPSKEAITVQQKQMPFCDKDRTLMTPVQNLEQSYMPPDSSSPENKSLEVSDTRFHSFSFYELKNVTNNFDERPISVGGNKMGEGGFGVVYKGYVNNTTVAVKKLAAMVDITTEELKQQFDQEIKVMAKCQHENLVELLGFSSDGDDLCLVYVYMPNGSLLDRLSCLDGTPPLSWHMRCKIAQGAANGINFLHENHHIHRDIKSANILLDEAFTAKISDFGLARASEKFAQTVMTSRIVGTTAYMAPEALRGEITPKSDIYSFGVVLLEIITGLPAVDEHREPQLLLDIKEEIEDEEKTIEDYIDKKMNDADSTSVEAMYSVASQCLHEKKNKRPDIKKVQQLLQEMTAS
Assay: IRAK4 Degradation Assay with Human Serum (Karpas299, HTRF/TR-FRET)
Assay type: cell-based
Conditions: Karpas-299 in human serum, 24 hrs treatment; read-out: IRAK4 degradtion with human serum assay Dmax (%)

>  <compound>
CC(C)(O)c1cc2nn([C@H]3CC[C@H](N4CCN(C(=O)C5CN(c6cc(F)c([C@H]7CCC(=O)NC7=O)c(F)c6)C5)CC4)CC3)cc2cc1NC(=O)c1ccc2cc(C#N)cnn12

>  <units>
%

>  <Dmax>
100

$$$$
>  <compound>
C[C@@H]1CN([C@H]2CC[C@H](n3cc4cc(NC(=O)c5ccc6cc(C#N)cnn56)c(C(C)(C)O)cc4n3)CC2)CCN1CC1CN(c2cc(F)c([C@H]3CCC(=O)NC3=O)c(F)c2)C1

>  <units>
%

>  <Dmax>
102

$$$$
>  <compound>
CC(C)(O)c1cc2nn(C34CCC(N5CCN(CCc6cc(F)c([C@H]7CCC(=O)NC7=O)c(F)c6)CC5)(CC3)CC4)cc2cc1NC(=O)c1ccc2cc(C#N)cnn12

>  <units>
%

>  <Dmax>
101

$$$$
>  <compound>
CC(C)(O)c1cc2nn([C@H]3CC[C@H](N4CCN(CCc5cc(F)c([C@H]6CCC(=O)NC6=O)c(F)c5)CC4=O)CC3)cc2cc1NC(=O)c1ccc2cc(C#N)cnn12

>  <units>
%

>  <Dmax>
94

$$$$
>  <compound>
CC(C)(O)c1cc2nn([C@H]3CC[C@H](N4CCN(CCc5cc(F)c([C@H]6CCC(=O)NC6=O)c(F)c5)CC4)CC3)cc2cc1NC(=O)c1ccc2cc(C#N)cnn12

>  <units>
%

>  <Dmax>
99

$$$$
>  <compound>
C[C@@H]1CN([C@H]2CC[C@H](n3cc4cc(NC(=O)c5ccc6cc(C#N)cnn56)c(C(C)(C)O)cc4n3)CC2)CCN1C(=O)C1CN(c2cc(F)c([C@H]3CCC(=O)NC3=O)c(F)c2)C1

>  <units>
%

>  <Dmax>
100

$$$$
>  <compound>
CC(C)(O)c1cc2nn(C34CC(N5CCN(CC6CN(c7cc(F)c(N8CCC(=O)NC8=O)c(F)c7)C6)CC5)(C3)C4)cc2cc1NC(=O)c1ccc2cc(C#N)cnn12

>  <units>
%

>  <Dmax>
93

$$$$
>  <compound>
COc1cc(N2CC[C@@H](C(=O)N3CCN([C@H]4CC[C@H](n5cc6cc(NC(=O)c7ccc8cc(C#N)cnn78)c(C(C)(C)O)cc6n5)CC4)CC3)C2)cc(F)c1N1CCC(=O)NC1=O

>  <units>
%

>  <Dmax>
95

$$$$
>  <compound>
COc1cc2nn([C@H]3CC[C@H](N4CCN(C(=O)C5CN(c6cc(F)c([C@H]7CCC(=O)NC7=O)c(F)c6)C5)CC4)CC3)cc2cc1C(=O)Nc1cnc2cccnn12

>  <units>
%

>  <Dmax>
102

$$$$
>  <compound>
CC(C)(O)c1cc2nn(C3CCC(N4C[C@@H]5CN(C6CN(c7cc(F)c([C@H]8CCC(=O)NC8=O)c(F)c7)C6)C[C@H]5C4)CC3)cc2cc1NC(=O)c1ccc2cc(C#N)cnn12 (stereo partly shown)

>  <units>
%

>  <Dmax>
98

$$$$
